EC50 values by entry
Target: T1, full-length beta-Catenin (Uniprot ID P35222) (Homo sapiens (Human), UniProt P35222 1-781)
T1 construct: Used full-length in the fluorescence polarization probe solution (10 nM); also called bCat; B-Catenin
T1 sequence: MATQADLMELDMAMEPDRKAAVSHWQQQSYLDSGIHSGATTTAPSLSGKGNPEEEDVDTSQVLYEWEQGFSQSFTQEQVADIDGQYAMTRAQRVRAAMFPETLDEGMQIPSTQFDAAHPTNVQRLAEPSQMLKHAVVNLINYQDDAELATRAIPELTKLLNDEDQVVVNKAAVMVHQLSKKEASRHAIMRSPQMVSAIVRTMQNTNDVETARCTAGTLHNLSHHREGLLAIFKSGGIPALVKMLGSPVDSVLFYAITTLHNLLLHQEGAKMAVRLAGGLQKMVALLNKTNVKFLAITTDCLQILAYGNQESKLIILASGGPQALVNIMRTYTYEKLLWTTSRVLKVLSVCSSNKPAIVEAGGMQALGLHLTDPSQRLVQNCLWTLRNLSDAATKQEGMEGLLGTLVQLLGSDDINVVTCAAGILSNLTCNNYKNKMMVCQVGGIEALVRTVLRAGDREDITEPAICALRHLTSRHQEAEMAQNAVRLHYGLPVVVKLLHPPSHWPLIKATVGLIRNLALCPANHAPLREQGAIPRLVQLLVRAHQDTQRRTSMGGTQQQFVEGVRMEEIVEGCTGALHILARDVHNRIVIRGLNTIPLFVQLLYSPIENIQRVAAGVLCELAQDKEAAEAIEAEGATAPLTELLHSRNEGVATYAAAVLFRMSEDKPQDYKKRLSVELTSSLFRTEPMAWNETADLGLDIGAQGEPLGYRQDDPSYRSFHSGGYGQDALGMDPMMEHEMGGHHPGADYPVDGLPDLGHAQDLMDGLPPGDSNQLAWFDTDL
Assay: fluorescence polarization competition; displacement of 5FAM-TCF4(10-53) from full-length beta-catenin
Starred links: 1 amine or outer side, 2 acyl side, 3 side chain; linkers in the order of their positions; H or OH if unused. Positions of bridges follow the written chain, without caps; N, C: chain ends. Non-standard residues stand in square brackets, D forms with d. Primed or numbered codes have the meaning given here. B5(6) = 2-amino-2-(pent-4-en-1-yl)hept-6-enoic acid (bis(4-pentenyl)glycine), stitching residue, C=CCCCC(CCCC=C)(N[*:1])C(=O)[*:2]; Bta = N[C@@H](Cc1csc2ccccc12)C(=O)O; αAllylPro = C=CC[C@@]1(C(=O)O)CCCN1; S8 = C=CCCCCCC[C@](C)(N)C(=O)O; hSer = N[C@@H](CCO)C(=O)O
READOUT_KIND: EC50 (nM)

1) XDAXDEAAFNXFXH (not fully specified; Ac-PL3-Asp-Ala-B5-Asp-Glu-Ala-Ala-Phe-Asn-S8-Phe-BztA-1MeH-NH2; N-terminal acetyl, C-terminal amide; stapled PL3-B5 and B5-S8, Stapled peptide composition) [I-478] | 71
2) XDAXDEAAFQXFXQ (not fully specified; Ac-PL3-Asp-Ala-B5-Asp-Glu-Ala-Ala-Phe-Gln-S8-Phe-BztA-DGIn-NH2 (so in the source); read as D-Gln at position 14); N-terminal acetyl, C-terminal amide; stapled PL3-B5 and B5-S8, Stapled peptide composition) [I-494] | 82
3) XDAXDEAAFQXFXS (not fully specified; Ac-PL3-Asp-Ala-B5-Asp-Glu-Ala-Ala-Phe-Gln-S8-Phe-BztA-Hse-NH2; N-terminal acetyl, C-terminal amide; stapled PL3-B5 and B5-S8, Stapled peptide composition) [I-492] | 53
4) Ac-[αAllylPro]DA[B5(6)][hSer]EAAFQ[S8]F[Bta]Q-NH2 (staple 1-4, 4-11; not fully specified; printed as Ac-PL3-Asp-Ala-B5-Hse-Glu-Ala-Ala-Phe-Gln-S8-Phe-BztA-Gln-NH2, Stapled peptide composition) [I-498] | 5000
5) XDIXDEAAFQXFXN (not fully specified; Ac-PL3-Asp-Ile-B5-Asp-Glu-Ala-Ala-Phe-Gln-S8-Phe-BztA-Asn-NH2; N-terminal acetyl, C-terminal amide; stapled PL3-B5 and B5-S8, Stapled peptide composition) [I-495] | 181
6) Ac-[αAllylPro]DI[B5(6)]DDAAFN[S8]F[Bta]H-NH2 (staple 1-4, 4-11; also: separate HPLC peak/isomer composition from I-469, Stapled peptide composition) [I-470] | 11
7) Ac-[αAllylPro]DI[B5(6)]DEAAFQ[S8]F[Bta]H-NH2 (staple 1-4, 4-11, Stapled peptide composition) [I-471] | 52
8) Ac-[αAllylPro]DA[B5(6)][hSer]EAAFQ[S8]F[Bta]Q-NH2 (staple 1-4, 4-11; not fully specified; printed as Ac-PL3-Asp-Ala-B5-Hse-Glu-Ala-Ala-Phe-Gln-S8-Phe-BztA-Gln-NH2, Stapled peptide composition) [I-497] | 5000
9) XDAXDEAAFQXFXS (not fully specified; Ac-PL3-Asp-Ala-B5-Asp-Glu-Ala-Ala-Phe-Gln-S8-Phe-BztA-DSer-NH2; N-terminal acetyl, C-terminal amide; D-Ser at position 14; stapled PL3-B5 and B5-S8, Stapled peptide composition) [I-493] | 88
10) XDAXDEAAFQXFXS (not fully specified; Ac-PL3-Asp-Ala-B5-Asp-Glu-Ala-Ala-Phe-Gln-S8-Phe-BztA-Hse-NH2; N-terminal acetyl, C-terminal amide; stapled PL3-B5 and B5-S8, Stapled peptide composition) [I-491] | 153
11) XDAXDEAAFNXFXH (not fully specified; Ac-PL3-Asp-Ala-B5-Asp-Glu-Ala-Ala-Phe-Asn-S8-Phe-BztA-1MeH-NH2; N-terminal acetyl, C-terminal amide; stapled PL3-B5 and B5-S8, Stapled peptide composition) [I-479] | 27
12) XDIXDEAAFNXFXQ (not fully specified; Ac-PL3-Asp-aIle-B5-Asp-Glu-Ala-Ala-Phe-Asn-S8-Phe-BztA-Gln-NH2; N-terminal acetyl, C-terminal amide; stapled PL3-B5 and B5-S8, Stapled peptide composition) [I-476] | 48
